tested on: SF-295 CNS; experiment: NCI tumour cell line growth inhibition, 48 h; in the data active = GI50 below about 0.43 µM; inactive = the rest
The reply should name one outcome from active, inactive

Qu. Write down the call the test reported for this molecule. Item: COc1ccc(C(SCC(N)C(=O)O)(c2ccccc2)c2ccccc2)cc1 (stereo not given)
Ans. active

Qu. Write down the call the test reported for this molecule. Item: COc1cc(-c2nc3ccccc3s2)ccc1NC(=O)COc1ccc(Cl)cc1
Ans. inactive

Qu. Hi, sorry to bother you, what did the test record for O=C1c2ccccc2S(=O)(=O)N1CSC(=S)N1CCCCC1 ?
Ans. inactive

Qu. // outcome(item) with item = CC(C)(C)C(=O)OCOP(=O)(OCOC(=O)C(C)(C)C)C1CC(O)N(O)C1=O (stereo not given)
Ans. inactive

Qu. # outcome recorded in this test, key = CN(C)CCNC(=O)C(C)(C)Oc1ccc(C(=O)c2ccc(Cl)cc2)cc1Cl
Ans. inactive

---

tested on: DMS 273 small cell lung; experiment: NCI tumour cell line growth inhibition, 48 h
Measured Attribute: TGI

Qu. Query TGI on DMS 273 small cell lung for CC[P+](C)(C)c1ccccc1
Ans. > 100 µM

Qu. Which TGI is reported with DMS 273 small cell lung for this entry: C/C=C/C1=CC(=O)C(O)C1O (stereo unspecified) ?
Ans. 98.9 µM

Qu. Item CC(/C(=N\Nc1ccccc1)c1ccc(O)cc1)C1C(=O)Oc2ccccc21 (stereo unspecified) with DMS 273 small cell lung - TGI?
Ans. > 100 µM

Qu. Notebook: pull reported TGI for DMS 273 small cell lung, entry CCOC(=O)CSC(=O)NCCCl
Ans. > 100 µM

Qu. Lookup: TGI / DMS 273 small cell lung / CC1SC2=NC3=C(c4ccccc4C3=O)C(c3ccc(Cl)cc3)N2C1=O (stereo unspecified)
Ans. > 100 µM

Qu. Return TGI measured with DMS 273 small cell lung given this compound: CCCCCCCCCCCCCC(=O)OCC1OC(n2cc(F)c(=O)[nH]c2=O)C(NC(=O)OCc2ccccc2)C(OC(=O)CCCCCCCCCCCCC)C1O (stereo unspecified)
Ans. > 100 µM

---

tested on: SN12C renal; test: NCI tumour cell line growth inhibition, 48 h; in the data active means GI50 below about 0.43 µM; inactive means the rest
Thanks in advance; please answer with one of these: YES for active, NO for inactive

Qu. Please state the recorded outcome for this compound: COc1ccc(C(=O)COC(=O)[C@H](C[Se][Se]C[C@H](NC(=O)c2ccc(Br)cc2F)C(=O)OCC(=O)c2ccc(OC)cc2)NC(=O)c2ccc(Br)cc2F)cc1
Ans. NO

Qu. Hello, I am checking results. What call was entered for NC1CCC(Nc2nc(NCc3ccc(-c4cccs4)nc3)c3ncn(C4CCCC4)c3n2)CC1 (stereo unspecified) ?
Ans. YES

Qu. Please state the recorded outcome for this compound: Clc1ccc2c(c1)N(CCCN1CCCC1)c1ccccc1S2
Ans. NO

Qu. Answer briefly: the call reported for CN(C)CCNC(=O)C(C)(C)Oc1ccc(C(=O)c2ccc(Cl)cc2)cc1Cl in this assay.
Ans. NO

Qu. Check the results log: what was the call for CCN1C(=O)N(CC)C2Nn3c(s/c(=C\c4ccccc4Br)c3=O)=NC21 (stereo unspecified) ?
Ans. NO

Qu. Give the logged outcome of this assay for the following compound: Cc1cc(O)ccc1C1=NN(c2ccc(S(C)(=O)=O)cc2)C(=O)CC1
Ans. NO

---

test system: BT-549 breast; experiment: NCI tumour cell line growth inhibition, 48 h
Measured Attribute: TGI (µM)
// units = µM; emit number, no label

Qu. Sample COc1cccc2c1OC(c1ccc(C#N)cc1)C([N+](=O)[O-])=C2 (stereo not given) — what was its TGI?
Ans. 2.85

Qu. What value of measured TGI is listed for C[C@]12CC/C(=N\O)C=C1CC[C@@H]1[C@@H]2CC[C@]2(C)C(=N/O)/C(=C/c3ccc([N+](=O)[O-])cc3)C[C@@H]12 ?
Ans. 14.3

Qu. Requested read-out: TGI. Entry: CCCCCCCCCCCCCC1=NCCN1CCO
Ans. 31.8

Qu. Form field: reported TGI of NC(N)=N/N=C/c1c(-c2cc(Cl)sc2Cl)nc2sccn12
Ans. 2.55

Qu. Can you look up the measured TGI of CCC[C@H](NS(=O)c1ccc(C)cc1)C(C(=O)OCC)=C(c1ccccc1)c1ccccc1 (stereo not given in full) for me?
Ans. 48.3

Qu. Entry under review: Cc1oc2c(Cl)cc(O)c(Cl)c2c2cccc1-2 . Reported TGI?
Ans. 74.2

Qu. Dear colleague, I am looking for the recorded TGI of the following molecule: CN(N)c1cc(=O)[nH]c(=O)[nH]1
Ans. 50.6

Qu. GET /values?readout=TGI&item= Clc1ccc2c(c1)N(c1ncnc3ccc(-c4cnc5[nH]ccc5c4)cc13)CC2
Ans. 47.8

Qu. Entry under review: O=C(c1ccccc1)c1ccc(Oc2ccc([N+](=O)[O-])cc2[N+](=O)[O-])cc1 . Reported TGI?
Ans. 40.3

Qu. I am curious: what TGI value has been reported for CC(=O)OC/C=C\Cn1nc(Br)c(=O)[nH]c1=O ?
Ans. 22.2

Qu. Fill blank: measured TGI of the molecule CC(=O)NC(c1nc2cc(C)c(C)cc2[nH]1)c1nc2cc(C)c(C)cc2[nH]1 is ____.
Ans. 61.6

Qu. Fill in: TGI of Oc1ccc(O)c(-c2cn3ccsc3n2)c1 is ___
Ans. 21

Qu. Look up TGI: c1cc2[nH]ncc2cc1-c1nc2ccc3[nH]ncc3c2c2c1CCCC2
Ans. 3.78

Qu. # input molecule: C/C(=C\CCc1ccoc1)CC/C=C(\C)CCCN1CCOCC1 ; wanted: its TGI
Ans. 8.74

Qu. For the molecule CN(C)c1ccc(N=C2C=CC(=[N+](C)C)C=C2)cc1 , what TGI is on record?
Ans. 58.4

Qu. Tell me the measured TGI of O=C1C(=O)c2c(nc3ccc(Br)cn23)-c2ccccc21 , please.
Ans. 2.67

Qu. Quick one: TGI of CCCCCCCCN(CCCCCCCC)CCCCCCNc1cc(OC)cc2cccnc12 ?
Ans. 28

Qu. Suppose we examine the molecule Nc1nc2c(s1)CCc1c-2c(Br)n(Cc2ccccc2)c1Br ; what TGI value has been reported?
Ans. 30.2

---

Consider the following compounds; for each one, report its TGI.
test system: MCF7 breast; assay: NCI tumour cell line growth inhibition, 48 h

Qu. Given the entry CC1Oc2c(c(=O)oc3ccccc23)[C@@]1(C)CC1C[C@H](C)C(=O)O1 (some centres undefined) , report its measured TGI.
Ans. > 100 µM

Qu. Could you tell me which TGI is on file for [O-][n+]1ccccc1S ?
Ans. > 100 µM

Qu. Any idea what TGI was measured for CCOC(=O)CSc1nnc2cc(CN3CCCC3)c(-c3ccc(Cl)cc3)nn12 ?
Ans. > 100 µM

Qu. So what's the measured TGI for this one? Nc1ccn(C2CCC(CO)O2)c(=S)n1 (centres undefined)
Ans. > 100 µM

Qu. Can you look up the measured TGI of COc1cc(S(=O)(=O)Nc2ccc(-c3csc(N)n3)cc2)ccc1Cl for me?
Ans. 29.9 µM

Qu. Recorded TGI of O=c1oc2ccccc2c(O)c1/C=N/C(=S)NCCc1ccccc1 , please.
Ans. > 100 µM

Qu. Tell me the measured TGI of Cc1ccc2ncnc(N(CC(C)C)CC(C)C)c2c1 , please.
Ans. > 100 µM

Qu. // query TGI value for entry O=c1ccn(C2OC(CO)C(O)C2[Se]c2ccccc2)c(=O)[nH]1 (centres undefined)
Ans. > 100 µM

Qu. Could you tell me which TGI is on file for CC(C)(C)Nc1noc(=O)n1C(C)(C)C ?
Ans. > 100 µM

Qu. Which TGI value is on record for O=C1c2ccccc2S(=O)(=O)N1CSC(=S)N1CCCCC1 ?
Ans. > 100 µM

Qu. Bench note: what TGI did C/C(=C\CCc1ccoc1)CC/C=C(\C)CCCN1CCOCC1 show?
Ans. 11.2 µM

Qu. Fill in the blank: the reported TGI of Cc1ccccc1-n1ncc(C(=O)c2ccccc2)c1N is ____.
Ans. > 25 µM

Qu. Would you kindly share the measured TGI for O=C(c1ccccc1)c1ccc(-n2c3ccccc3c3ccc4c(c32)C(=O)C=CC4=O)cc1 ?
Ans. 10 µM

Qu. Quick one: TGI for CC(NC(=O)c1ccccc1)NC(=O)C(C)C(=O)Nc1ccccc1 (centres undefined) ?
Ans. > 100 µM

Qu. Give the measured TGI of c1cc2[nH]ncc2cc1-c1nc2ccc3[nH]ncc3c2c2c1CCCC2 .
Ans. 11.2 µM

Qu. Fill in: TGI of COc1ccc(/C(O)=C/c2nc3cccnc3nc2/C=C(\O)c2ccc(OC)cc2)cc1 is ___
Ans. 50.1 µM

Qu. Param item = CNC(=O)SCC(N)C(=O)O (centres undefined) ; retrieve measured TGI.
Ans. > 100 µM

Qu. # query: TGI of entry COc1ccc2c(c1)[nH]c(=O)c1c3cc(OC)ccc3cn21
Ans. 0.597 µM

Qu. Reported TGI, compound O=C(Nc1ccccc1)N(C1=NCC(CI)S1)c1ccc(F)cc1F (centres undefined) : ____
Ans. > 100 µM

Qu. Find the recorded TGI belonging to O=c1[nH]nc(Cc2ccccc2)n1/N=C\c1ccccc1 and report it.
Ans. > 100 µM

Qu. What value of measured TGI is listed for O=C(O)CCc1ccc2c(c1)C(=O)CC2 ?
Ans. > 100 µM

Qu. Reported TGI, compound COc1cc2cccc(N)c2cc1OC : ____
Ans. > 100 µM

Qu. Which TGI reading was recorded for the compound Nc1nc2c(s1)CCc1c-2c(Br)n(Cc2ccccc2)c1Br ?
Ans. 28.6 µM

Qu. Reported TGI for COc1ccc(C(SCC(N)C(=O)O)(c2ccccc2)c2ccccc2)cc1 (centres undefined) : what is it?
Ans. > 100 µM

The measurements presented in this section are drawn from PubChem BioAssay (NCI).
